These data points were gathered from paper PMC10213797.

Examples of molecules with documented IC50 follow.
# system_name: hBChE (Homo sapiens)
# Sequence (P06276 29-602): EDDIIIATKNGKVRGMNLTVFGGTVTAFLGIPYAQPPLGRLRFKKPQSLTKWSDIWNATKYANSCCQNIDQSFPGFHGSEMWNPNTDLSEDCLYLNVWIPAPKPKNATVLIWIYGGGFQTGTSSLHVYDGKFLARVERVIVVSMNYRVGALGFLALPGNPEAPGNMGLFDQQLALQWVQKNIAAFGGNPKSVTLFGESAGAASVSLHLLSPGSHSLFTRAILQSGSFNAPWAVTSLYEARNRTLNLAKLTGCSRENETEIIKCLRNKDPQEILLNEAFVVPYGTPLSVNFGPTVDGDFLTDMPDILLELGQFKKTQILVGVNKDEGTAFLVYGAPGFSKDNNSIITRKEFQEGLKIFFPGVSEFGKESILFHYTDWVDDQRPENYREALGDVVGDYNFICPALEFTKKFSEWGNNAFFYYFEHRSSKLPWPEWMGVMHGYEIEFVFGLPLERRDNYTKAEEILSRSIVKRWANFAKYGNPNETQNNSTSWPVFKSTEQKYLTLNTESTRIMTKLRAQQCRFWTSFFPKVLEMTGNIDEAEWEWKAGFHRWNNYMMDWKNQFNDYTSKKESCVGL
# method_notes: hBChE inhibition, Ellman's method
# Type: biochemical
# reported_conditions: IC50 ± SEM hBChE, Table 1; n = 3, in triplicates
Give a bare numeral; the unit µM is implied.

Guide cases for IC50, answers given:
| query_smiles | units_symbol | IC50 |
| --- | --- | --- |
| COc1cccc2cc(/C=[N+](\[O-])C(C)(C)C)c(Cl)nc12 | µM | 15.2 |
| [O-]/[N+](=C\c1cc2cccc(O)c2nc1Cl)Cc1ccccc1 | µM | 10.7 |

Form: Entry = "C#CCN1CCN(CCCOc2nc3c(OC)cccc3cc2/C=[N+](\[O-])C(C)(C)C)CC1" | System = hBChE (Homo sapiens) | IC50 = ____
2.06

Form: Entry = "C#CCN1CCN(CCCOc2cccc3cc(/C=[N+](\[O-])C(C)(C)C)c(Cl)nc23)CC1" | System = hBChE (Homo sapiens) | IC50 = ____
13.3

Form: Entry = "C#CCN1CCN(CCCOc2nc3c(OC)cccc3cc2/C=[N+](\[O-])Cc2ccccc2)CC1" | System = hBChE (Homo sapiens) | IC50 = ____
3.06

Form: Entry = "COc1cccc2cc(/C=[N+](\[O-])C(C)(C)C)c(OCCCN3CCCCC3)nc12" | System = hBChE (Homo sapiens) | IC50 = ____
0.707

Form: Entry = "COc1cccc2cc(/C=[N+](\[O-])Cc3ccccc3)c(OCCCN3CCCCC3)nc12" | System = hBChE (Homo sapiens) | IC50 = ____
0.415

Form: Entry = "CC(C)(C)/[N+]([O-])=C/c1cc2cccc(OCCCN3CCCCC3)c2nc1Cl" | System = hBChE (Homo sapiens) | IC50 = ____
5.57

Form: Entry = "C#CCN1CCN(CCCOc2cccc3cc(/C=[N+](\[O-])Cc4ccccc4)c(Cl)nc23)CC1" | System = hBChE (Homo sapiens) | IC50 = ____
14.8

Form: Entry = "CC(C)(C)/[N+]([O-])=C/c1cc2cccc(O)c2nc1Cl" | System = hBChE (Homo sapiens) | IC50 = ____
12.4

Form: Entry = "[O-]/[N+](=C\c1cc2cccc(OCCCN3CCCCC3)c2nc1Cl)Cc1ccccc1" | System = hBChE (Homo sapiens) | IC50 = ____
10.2

---

# system_name: hMAO-B (Homo sapiens)
# Sequence (P27338 whole entry): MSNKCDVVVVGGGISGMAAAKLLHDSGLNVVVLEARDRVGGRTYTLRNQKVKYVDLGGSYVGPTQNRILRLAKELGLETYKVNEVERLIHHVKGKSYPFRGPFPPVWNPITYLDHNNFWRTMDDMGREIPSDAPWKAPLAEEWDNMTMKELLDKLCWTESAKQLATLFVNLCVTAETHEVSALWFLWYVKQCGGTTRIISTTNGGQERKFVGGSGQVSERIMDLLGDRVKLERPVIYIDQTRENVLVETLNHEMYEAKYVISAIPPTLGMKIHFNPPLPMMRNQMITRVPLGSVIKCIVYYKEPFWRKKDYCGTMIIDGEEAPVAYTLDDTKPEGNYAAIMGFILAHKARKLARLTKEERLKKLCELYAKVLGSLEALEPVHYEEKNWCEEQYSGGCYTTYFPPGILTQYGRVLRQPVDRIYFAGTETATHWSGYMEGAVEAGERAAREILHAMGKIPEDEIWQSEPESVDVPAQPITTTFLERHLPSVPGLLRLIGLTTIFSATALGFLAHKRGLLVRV
Examples of compounds with documented IC50 follow.
Give a bare numeral; the unit µM is implied.

Guide cases for IC50, answers given:
| compound | IC50 [µM] |
| --- | --- |
| O=Cc1ccc2cccc(O)c2n1 [QN 30, 8-hydroxyquinoline-2-carbaldehyde] | 43.9 |
| [O-]/[N+](=C\c1cc2cccc(OCCCN3CCCCC3)c2nc1Cl)Cc1ccccc1 | 50.4 |

Could you now consider this next compound?
Form: Entry = "C#CCN1CCN(CCCOc2cccc3cc(/C=[N+](\[O-])Cc4ccccc4)c(Cl)nc23)CC1" | System = hMAO-B (Homo sapiens) | IC50 = ____
13.8

---

Here's what we have: IC50 numbers for hMAO-A (Homo sapiens, UniProt P21397).
Reply with the number, then its unit.

| query_smiles | system_name | result_type | measured |
| --- | --- | --- | --- |
| CC(C)(C)/[N+]([O-])=C/c1cc2cccc(OCCCN3CCCCC3)c2nc1Cl | hMAO-A (Homo sapiens, UniProt P21397) | IC50 | 113 µM |
| C#CCN1CCN(CCCOc2cccc3cc(/C=[N+](\[O-])Cc4ccccc4)c(Cl)nc23)CC1 | hMAO-A (Homo sapiens, UniProt P21397) | IC50 | 14.9 µM |

I am curious: what IC50 value has been reported for "[O-]/[N+](=C\c1cc2cccc(OCCCN3CCCCC3)c2nc1Cl)Cc1ccccc1" ?
106 µM
